Assign Kb to each entry below.
TARGET DESC: Substance-K receptor (Rattus norvegicus, UniProt P16610)
Sequence (P16610 whole entry): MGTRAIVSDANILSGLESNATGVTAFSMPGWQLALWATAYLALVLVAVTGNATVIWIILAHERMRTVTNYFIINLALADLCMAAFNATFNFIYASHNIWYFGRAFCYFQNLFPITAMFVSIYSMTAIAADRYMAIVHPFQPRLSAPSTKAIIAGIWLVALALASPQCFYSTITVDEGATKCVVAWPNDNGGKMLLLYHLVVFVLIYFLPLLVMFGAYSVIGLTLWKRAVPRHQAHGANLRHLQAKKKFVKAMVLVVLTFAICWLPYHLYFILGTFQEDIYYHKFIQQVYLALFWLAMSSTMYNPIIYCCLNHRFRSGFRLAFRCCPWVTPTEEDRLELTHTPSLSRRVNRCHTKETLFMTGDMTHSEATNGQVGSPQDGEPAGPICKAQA
TEST PROTOCOL: Antagonism against Tachykinin receptor 2 in rat vas deferens(RVD)
Format: functional
CONDITION PARAMETERS: read-out: pA2 (converted)
I only need the number, in nM, no unit after it.

Lab note: "CC(C)[C@H](NC(=O)[C@@H](Cc1c[nH]c2ccccc12)NC(=O)[C@H](Cc1ccc(O)cc1)NC(=O)[C@@H](N)CC(=O)O)C(=O)N[C@H](Cc1c[nH]c2ccccc12)C(=O)N[C@H](Cc1c[nH]c2ccccc12)C(=O)N[C@@H](Cc1ccc(O)cc1)C(=O)O" gave Kb of 191

Lab note: "CC(C)[C@H](NC(=O)[C@@H](Cc1c[nH]c2ccccc12)NC(=O)[C@H](Cc1ccc(O)cc1)NC(=O)[C@@H](N)CC(=O)O)C(=O)N[C@H](Cc1c[nH]c2ccccc12)C(=O)N[C@H](Cc1c[nH]c2ccccc12)C(=O)N[C@@H](CCC(=O)O)C(=O)O" gave Kb of 30.9

Lab note: "CC(C)[C@H](NC(=O)[C@@H](Cc1c[nH]c2ccccc12)NC(=O)[C@H](Cc1ccc(O)cc1)NC(=O)[C@@H](N)CC(=O)O)C(=O)NCC(=O)N[C@H](Cc1c[nH]c2ccccc12)C(=O)N[C@@H](CCCN=C(N)N)C(=O)O" gave Kb of 18600

Lab note: "C[C@H](NC(=O)[C@@H](Cc1c[nH]c2ccccc12)NC(=O)[C@H](Cc1ccc(O)cc1)NC(=O)[C@@H](N)CC(=O)O)C(=O)N[C@H](Cc1c[nH]c2ccccc12)C(=O)N[C@H](Cc1c[nH]c2ccccc12)C(=O)N[C@@H](CCCCN)C(=O)O" gave Kb of 295

----------
TARGET DESC: Oxytocin receptor (Rattus norvegicus, UniProt P70536)
Sequence (P70536 whole entry): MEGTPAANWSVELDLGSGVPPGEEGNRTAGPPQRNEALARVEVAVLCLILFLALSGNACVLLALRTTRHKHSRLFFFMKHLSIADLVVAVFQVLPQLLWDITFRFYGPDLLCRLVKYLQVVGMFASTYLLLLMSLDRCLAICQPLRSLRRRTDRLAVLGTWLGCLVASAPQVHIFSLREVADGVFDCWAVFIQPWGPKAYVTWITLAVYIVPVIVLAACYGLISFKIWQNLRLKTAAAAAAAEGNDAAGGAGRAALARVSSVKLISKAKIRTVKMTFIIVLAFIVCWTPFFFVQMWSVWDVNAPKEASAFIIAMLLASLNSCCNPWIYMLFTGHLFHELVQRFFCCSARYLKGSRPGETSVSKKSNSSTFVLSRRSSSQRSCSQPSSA
TEST PROTOCOL: Biological activity against Oxytocin receptor in rat
OBSERVATION TYPE: pA2

Lab note: "CC[C@H](C)[C@H](NC(=O)[C@@H](Cc1c[nH]c2ccccc12)NC(=O)CC1(S)CCCCC1)C(=O)N[C@H](CC(N)=O)C(=O)N[C@@H](CC(N)=O)C(=O)N[C@@H](CS)C(=O)N1CCC[C@H]1C(=O)N[C@@H](CCCN=C(N)N)C(=O)NCC(N)=O" gave pA2 of 5.41

Lab note: "CC[C@H](C)[C@@H]1NC(=O)[C@@H](Cc2c[nH]c3ccccc23)NC(=O)CC2(CCCCC2)SSC(C)(C)[C@H](C(=O)N2CCC[C@H]2C(=O)N[C@@H](CCCN=C(N)N)C(=O)NCC(N)=O)NC(=O)[C@H](CC(N)=O)NC(=O)[C@H](CCC(=O)O)NC1=O" gave pA2 of 7.98

Lab note: "CC[C@H](C)[C@H](NC(=O)[C@@H](Cc1c[nH]c2ccccc12)NC(=O)CC1(S)CCCCC1)C(=O)N[C@H](CCC(N)=O)C(=O)N[C@@H](CC(N)=O)C(=O)N[C@@H](CS)C(=O)N1CCC[C@H]1C(=O)N[C@@H](CCCN=C(N)N)C(=O)NCC(N)=O" gave pA2 of 5.24
